# ASSAY OVERVIEW: Saturation solubility test of the compound of formula I in different solvents
# Type: physicochemical
# STATED CONDITIONS: oil or lipid, thermodynamic from solid; saturation solubility in Corn oil
TEST READOUT: solubility

CCS(=O)(=O)N1CC(C(CC#N)n2cc(-c3nc(Nc4cnn(C)c4)nc4ccsc34)cn2)C1 (stereo not shown): 14 µg/mL

---

# ASSAY OVERVIEW: Saturation solubility test of the compound of formula I in different solvents
# Assay type: physicochemical
# STATED CONDITIONS: organic solvent or mixture, thermodynamic from solid; saturation solubility in Polyethylene glycol 400
TEST READOUT: solubility (mg/mL)

CCS(=O)(=O)N1CC(C(CC#N)n2cc(-c3nc(Nc4cnn(C)c4)nc4ccsc34)cn2)C1 (stereo not shown) [Compound of formula I]: 26.7
